System: Candida albicans
Assay: In vitro Antifungal activity against Candida albicans FP633 by agar dilution method using Sabouraud Dextrose agar.
Assay type: functional

STRUCTURE_AS_SMILES | MIC (mg/L)
CCCCCCCCCCCCC[C@H](CC(=O)N[C@@H](C(=O)N[C@H](C)C(=O)N[C@@H](Cc1ccc(O)c(NC(=O)CCN)c1)C(=O)N[C@H](C(=O)N1C[C@H](O)C[C@H]1C(=O)N[C@@H](C(=O)N[C@H](C(=O)N1CC[C@H](O)[C@H]1C(=O)N[C@H](C(=O)NCC(=O)N[C@@H](C(N)=O)[C@@H](C)O)[C@H](O)CC(N)=O)[C@@H](C)O)[C@@H](C)O)C(C)C)[C@@H](C)O)OC(=O)[C@@H](C)CCCNC(C)=O.Cl | 1.56
CCCCCCCCCCCCC[C@H](CC(=O)N[C@@H](C(=O)N[C@H](C)C(=O)N[C@@H](Cc1ccc(O)c(Cl)c1)C(=O)N[C@H](C(=O)N1C[C@H](O)C[C@H]1C(=O)N[C@@H](C(=O)N[C@H](C(=O)N1CC[C@H](O)[C@H]1C(=O)N[C@H](C(=O)NCC(=O)N[C@@H](C(N)=O)[C@@H](C)O)[C@H](O)CC(N)=O)[C@@H](C)O)[C@@H](C)O)C(C)C)[C@@H](C)O)OC(=O)[C@@H](C)CCCN | 0.39
CCCCCCCCCCCCC[C@H](CC(=O)N[C@@H](C(=O)N[C@H](C)C(=O)N[C@@H](Cc1ccc(O)c(N)c1)C(=O)N[C@H](C(=O)N1C[C@H](O)C[C@H]1C(=O)N[C@@H](C(=O)N[C@H](C(=O)N1CC[C@H](O)[C@H]1C(=O)N[C@H](C(=O)NCC(=O)N[C@@H](C(N)=O)[C@@H](C)O)[C@H](O)CC(N)=O)[C@@H](C)O)[C@@H](C)O)C(C)C)[C@@H](C)O)OC(=O)[C@@H](C)CCCN | 0.78

----------
MIC overview
System: Candida albicans
Assay: In vitro Antifungal activity against Candida albicans FP633 by agar dilution method using Sabouraud Dextrose agar.
Type: functional
MEASURE_NAME: MIC (µg/mL)

STRUCTURE_AS_SMILES | MEASURE_NAME | DATA_VALUE
CCCCCCCCCCCCC[C@H](CC(=O)N[C@@H](C(=O)N[C@H](C)C(=O)N[C@@H](Cc1ccc(O)cc1)C(=O)N[C@H](C(=O)N1C[C@H](O)C[C@H]1C(=O)N[C@@H](C(=O)N[C@H](C(=O)N1CC[C@H](O)[C@H]1C(=O)N[C@H](C(=O)NCC(=O)N[C@@H](C(N)=O)[C@@H](C)O)[C@H](O)CC(N)=O)[C@@H](C)O)[C@@H](C)O)C(C)C)[C@@H](C)O)OC(=O)[C@@H](C)CCCNC(C)=O | MIC | 0.39
CCCCCCCCCCCCC[C@@H]1CC(=O)N[C@@H]([C@@H](C)O)C(=O)N[C@H](C)C(=O)N[C@@H](Cc2ccc(O)c(NC(=O)CCN)c2)C(=O)N[C@@H](C(C)C)C(=O)N2C[C@H](O)C[C@H]2C(=O)N[C@@H]([C@@H](C)O)C(=O)N[C@@H]([C@@H](C)O)C(=O)N2CC[C@H](O)[C@H]2C(=O)N[C@@H]([C@H](O)CC(N)=O)C(=O)NCC(=O)N[C@@H]([C@@H](C)O)C(=O)N[C@@H](CCCN)C(=O)O1 | MIC | 0.78
CCCCCCCCCCCCC[C@H](CC(=O)N[C@@H](C(=O)N[C@H](C)C(=O)N[C@@H](Cc1ccc(O)c([N+](=O)[O-])c1)C(=O)N[C@H](C(=O)N1C[C@H](O)C[C@H]1C(=O)N[C@@H](C(=O)N[C@H](C(=O)N1CC[C@H](O)[C@H]1C(=O)N[C@H](C(=O)NCC(=O)N[C@@H](C(N)=O)[C@@H](C)O)[C@H](O)CC(N)=O)[C@@H](C)O)[C@@H](C)O)C(C)C)[C@@H](C)O)OC(=O)[C@@H](C)CCCN | MIC | 0.39

----------
System: Candida albicans
Assay: In vitro antifungal activity against Candida albicans 13004 by broth microdilution method
Type: functional

STRUCTURE_AS_SMILES | MIC [µg/mL]
CCCCCCCCCCCCC[C@H](CC(=O)N[C@@H](C(=O)N[C@H](C)C(=O)N[C@@H](Cc1ccc(O)c(NC(=O)[C@H](N)CO)c1)C(=O)N[C@H](C(=O)N1C[C@H](O)C[C@H]1C(=O)N[C@@H](C(=O)N[C@H](C(=O)N1CC[C@H](O)[C@H]1C(=O)N[C@H](C(=O)NCC(=O)N[C@@H](C(N)=O)[C@@H](C)O)[C@H](O)CC(N)=O)[C@@H](C)O)[C@@H](C)O)C(C)C)[C@@H](C)O)OC(=O)[C@@H](C)CCCN | 2

----------
Listing: Hemolytic activity of selected compounds
Species on record: Mus musculus
Assay: Ability to hemolyze ICR mouse RBCs at 1 mg/mL using microtiter red blood cell hemolysis assay.

STRUCTURE_AS_SMILES | Hemolytic activity, %
CCCCCCCCCCCCC[C@H](CC(=O)N[C@H](C(=O)N[C@@H](C)C(=O)N[C@@H](Cc1ccc(OCC(=O)O)c(NC(=O)CCN)c1)C(=O)N[C@H](C(=O)N1C[C@H](O)C[C@H]1C(=O)N[C@@H](C(=O)N[C@H](C(=O)N1CC[C@H](O)[C@H]1C(=O)N[C@H](C(=O)NCC(=O)N[C@H](C(N)=O)[C@@H](C)O)[C@H](O)CC(N)=O)[C@@H](C)O)[C@@H](C)O)C(C)C)[C@@H](C)O)OC(=O)[C@@H](C)CCCN.Cl | 23
CCCCCCCCCCCCC[C@H](CC(=O)N[C@@H](C(=O)N[C@H](C)C(=O)N[C@@H](Cc1ccc(O)c(Cl)c1)C(=O)N[C@H](C(=O)N1C[C@H](O)C[C@H]1C(=O)N[C@@H](C(=O)N[C@H](C(=O)N1CC[C@H](O)[C@H]1C(=O)N[C@H](C(=O)NCC(=O)N[C@@H](C(N)=O)[C@@H](C)O)[C@H](O)CC(N)=O)[C@@H](C)O)[C@@H](C)O)C(C)C)[C@@H](C)O)OC(=O)[C@@H](C)CCCN | 97
CCCCCCCCCCCCC[C@H](CC(=O)N[C@@H](C(=O)N[C@H](C)C(=O)N[C@@H](Cc1ccc(O)c(NC(=O)CC[C@H](N)C(=O)O)c1)C(=O)N[C@H](C(=O)N1C[C@H](O)C[C@H]1C(=O)N[C@@H](C(=O)N[C@H](C(=O)N1CC[C@H](O)[C@H]1C(=O)N[C@H](C(=O)NCC(=O)N[C@@H](C(N)=O)[C@@H](C)O)[C@H](O)CC(N)=O)[C@@H](C)O)[C@@H](C)O)C(C)C)[C@@H](C)O)OC(=O)[C@@H](C)CCCN | 60

----------
System: Candida parapsilosis
Assay: In vitro antifungal activity against Candida parapsilosis 15001 by agar dilution method using Sabouraud Dextrose agar.
Assay type: functional
Details: Lodderomyces parapsilosis
Numbered stars: 1 amine (or outer) side, 2 acyl side, 3 side chain; on linkers, the order of the positions; unused ones are H or OH. Bridge positions count the residues as written; N and C are the ends. Square brackets hold non-standard residues; d marks the D form. Peptide text beside a SMILES is read from it. Gln(3R-OH) = NC(=O)C[C@@H](O)[C@H](N)C(=O)O; X1 = CCCCCCCCCCCCC[C@H](CC(=O)[*:1])O[*:2]; Pro(3S-OH) = O=C(O)[C@H]1NCC[C@@H]1O; d(aThr) = C[C@@H](O)[C@@H](N)C(=O)O; Hyp = O=C(O)[C@@H]1C[C@@H](O)CN1; Orn = NCCC[C@H](N)C(=O)O
MEASURE_NAME: MIC

MOLECULE | DATA_VALUE
CCCCCCCCCCCCC[C@@H]1CC(=O)N[C@@H]([C@@H](C)O)C(=O)N[C@H](C)C(=O)N[C@@H](Cc2ccc(O)c(NC(=O)CCN)c2)C(=O)N[C@@H](C(C)C)C(=O)N2C[C@H](O)C[C@H]2C(=O)N[C@@H]([C@@H](C)O)C(=O)N[C@@H]([C@@H](C)O)C(=O)N2CC[C@H](O)[C@H]2C(=O)N[C@@H]([C@H](O)CC(N)=O)C(=O)NCC(=O)N[C@@H]([C@@H](C)O)C(=O)N[C@@H](CCCN)C(=O)O1 | 0.78 mg/L
CCCCCCCCCCCCC[C@H](CC(=O)N[C@@H](C(=O)N[C@H](C)C(=O)N[C@@H](Cc1ccc(O)c(NC(=O)CCN)c1)C(=O)N[C@H](C(=O)N1C[C@H](O)C[C@H]1C(=O)N[C@@H](C(=O)N[C@H](C(=O)N1CC[C@H](O)[C@H]1C(=O)N[C@H](C(=O)NCC(=O)N[C@@H](C(N)=O)[C@@H](C)O)[C@H](O)CC(N)=O)[C@@H](C)O)[C@@H](C)O)C(C)C)[C@@H](C)O)OC(=O)[C@@H](C)CCCNC(C)=O.Cl | 1.56 mg/L
CCCCCCCCCCCCC[C@H](CC(=O)N[C@@H](C(=O)N[C@H](C)C(=O)N[C@@H](Cc1ccc(O)c([N+](=O)[O-])c1)C(=O)N[C@H](C(=O)N1C[C@H](O)C[C@H]1C(=O)N[C@@H](C(=O)N[C@H](C(=O)N1CC[C@H](O)[C@H]1C(=O)N[C@H](C(=O)NCC(=O)N[C@@H](C(N)=O)[C@@H](C)O)[C@H](O)CC(N)=O)[C@@H](C)O)[C@@H](C)O)C(C)C)[C@@H](C)O)OC(=O)[C@@H](C)CCCN | 0.78 mg/L
CCCCCCCCCCCCC[C@H](CC(=O)N[C@@H](C(=O)N[C@H](C)C(=O)N[C@@H](Cc1ccc(O)c(Cl)c1)C(=O)N[C@H](C(=O)N1C[C@H](O)C[C@H]1C(=O)N[C@@H](C(=O)N[C@H](C(=O)N1CC[C@H](O)[C@H]1C(=O)N[C@H](C(=O)NCC(=O)N[C@@H](C(N)=O)[C@@H](C)O)[C@H](O)CC(N)=O)[C@@H](C)O)[C@@H](C)O)C(C)C)[C@@H](C)O)OC(=O)[C@@H](C)CCCN | 0.78 mg/L
CCCCCCCCCCCCC[C@H](CC(=O)N[C@@H](C(=O)N[C@H](C)C(=O)N[C@@H](Cc1ccc(O)cc1)C(=O)N[C@H](C(=O)N1C[C@H](O)C[C@H]1C(=O)N[C@@H](C(=O)N[C@H](C(=O)N1CC[C@H](O)[C@H]1C(=O)N[C@H](C(=O)NCC(=O)N[C@@H](C(N)=O)[C@@H](C)O)[C@H](O)CC(N)=O)[C@@H](C)O)[C@@H](C)O)C(C)C)[C@@H](C)O)OC(=O)[C@@H](C)CCCNC(C)=O | 1.56 mg/L
CCCCCCCCCCCCC[C@@H]1CC(=O)N[C@H]([C@@H](C)O)C(=O)N[C@H](C)C(=O)N[C@@H](Cc2ccc(O)cc2)C(=O)N[C@@H](C(C)C)C(=O)N2C[C@H](O)C[C@H]2C(=O)N[C@H]([C@@H](C)O)C(=O)N[C@@H]([C@@H](C)O)C(=O)N2CC[C@H](O)[C@H]2C(=O)N[C@@H]([C@H](O)CC(N)=O)C(=O)NCC(=O)N[C@H]([C@@H](C)O)C(=O)N[C@@H](CCCN)C(=O)O1 [FR-901469] ([d(aThr)][dA]YV[Hyp][d(aThr)]T[Pro(3S-OH)][Gln(3R-OH)]G[d(aThr)][Orn]; linker N-C via X1) | 0.39 mg/L
CCCCCCCCCCCCC[C@H](CC(=O)N[C@@H](C(=O)N[C@H](C)C(=O)N[C@@H](Cc1ccc(O)c(N)c1)C(=O)N[C@H](C(=O)N1C[C@H](O)C[C@H]1C(=O)N[C@@H](C(=O)N[C@H](C(=O)N1CC[C@H](O)[C@H]1C(=O)N[C@H](C(=O)NCC(=O)N[C@@H](C(N)=O)[C@@H](C)O)[C@H](O)CC(N)=O)[C@@H](C)O)[C@@H](C)O)C(C)C)[C@@H](C)O)OC(=O)[C@@H](C)CCCN | 1.56 mg/L
